Data origin, for the record: patent US20260242478A1

- EXPERIMENTAL_TARGET: T1, PSMA Fab (biotinylated (site not stated))
- T1 construct: Biotinylated PSMA Fab captured on neutravidin coated plates in the phage ELISA; also called Anti-PSMA Fab; 006 PSMA Fab
- PROTOCOL_NOTES: clonal phage ELISA on PSMA Fab pre-incubated with PSMA antigen as competitor
PROPERTY: Phage binding ELISA signal, Anti-PSMA Fab with PSMA antigen
Lab note: record the figure alone, no unit after it.

## Input Entry MDARCVPSWMCIGV (tested as crude clonal phage supernatant) [Phage-3479] : reported Phage binding ELISA signal, Anti-PSMA Fab with PSMA antigen = ?
## Output 0.48

## Input Item VSPMCRPAWMCEGL (tested as crude clonal phage supernatant) [Phage-3476] has what recorded Phage binding ELISA signal, Anti-PSMA Fab with PSMA antigen?
## Output 0.0909

## Input Param item = AERMCVPSWMCQGL (tested as crude clonal phage supernatant) [Phage-3484] ; retrieve measured Phage binding ELISA signal, Anti-PSMA Fab with PSMA antigen.
## Output 0.0943

## Input Give the measured Phage binding ELISA signal, Anti-PSMA Fab with PSMA antigen of EAIRCVPVWMCQGF (tested as crude clonal phage supernatant) [Phage-3485] .
## Output 0.0989

## Input So what's the measured Phage binding ELISA signal, Anti-PSMA Fab with PSMA antigen for this one? DTIACRPEWMCTGF (tested as crude clonal phage supernatant) [Phage-3481]
## Output 0.0607

## Input For the binder YFKHCVPQWMCEGF (tested as crude clonal phage supernatant) [Phage-3482] , what Phage binding ELISA signal, Anti-PSMA Fab with PSMA antigen is on record?
## Output 0.146

## Input I would be grateful if you could share the reported Phage binding ELISA signal, Anti-PSMA Fab with PSMA antigen for PVAVCKPAWMCEGF (tested as crude clonal phage supernatant) [Phage-3487] .
## Output 0.0982

## Input Entry under review: EFIKCEPKWMCQGF (tested as crude clonal phage supernatant) [Phage-3480] . Reported Phage binding ELISA signal, Anti-PSMA Fab with PSMA antigen?
## Output 0.0826

## Input So what does the record say about Phage binding ELISA signal, Anti-PSMA Fab with PSMA antigen for ITPACVPEWMCLGL (tested as crude clonal phage supernatant) [Phage-3483] ?
## Output 0.0774

## Input I am curious: what Phage binding ELISA signal, Anti-PSMA Fab with PSMA antigen value has been reported for YSQMCKPAWMCNGF (tested as crude clonal phage supernatant) [Phage-3486] ?
## Output 0.101

## Input Which Phage binding ELISA signal, Anti-PSMA Fab with PSMA antigen value belongs to SDKFCVPEWMCEWI (tested as crude clonal phage supernatant) [Phage-3478] ?
## Output 0.0588

## Input Return reported Phage binding ELISA signal, Anti-PSMA Fab with PSMA antigen; argument: LDRMCVPLWMCEGF (tested as crude clonal phage supernatant) [Phage-3489]
## Output 0.0991

## Input Name the recorded Phage binding ELISA signal, Anti-PSMA Fab with PSMA antigen for ITQMCKPAWMCVGL (tested as crude clonal phage supernatant) [Phage-3488] .
## Output 0.123

## Input Find the recorded Phage binding ELISA signal, Anti-PSMA Fab with PSMA antigen belonging to VWKTCVPEWMCVGY (tested as crude clonal phage supernatant) [Phage-3477] and report it.
## Output 0.112
